Molecular target: ULK3 (human) (UniProt Q6PHR2)
Sequence (Q6PHR2 whole entry, looked up): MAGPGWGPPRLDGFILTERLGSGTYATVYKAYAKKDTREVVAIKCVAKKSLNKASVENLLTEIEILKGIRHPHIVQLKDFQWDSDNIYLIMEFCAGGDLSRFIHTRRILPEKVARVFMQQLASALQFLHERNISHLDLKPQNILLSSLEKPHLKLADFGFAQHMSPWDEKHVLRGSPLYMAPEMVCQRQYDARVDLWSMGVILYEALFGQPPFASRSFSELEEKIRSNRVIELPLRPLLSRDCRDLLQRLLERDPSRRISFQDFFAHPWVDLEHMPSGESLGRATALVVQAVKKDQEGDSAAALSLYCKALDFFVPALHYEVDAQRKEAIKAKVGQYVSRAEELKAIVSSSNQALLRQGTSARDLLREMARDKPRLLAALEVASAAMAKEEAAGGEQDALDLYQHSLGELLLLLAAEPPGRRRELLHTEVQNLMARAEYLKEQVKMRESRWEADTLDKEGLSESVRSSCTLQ
Assay: radiometric filter-binding kinase assay, Kinase HotSpot
Details: compound 0.5 µM; ATP 10 µM
endpoint-label: residual activity (%)
Enter your answer as a number in %; do not include the unit.

Report measured residual activity; entry is Fc1ccc(-c2nc3n(c2-c2ccncc2)CCS3)cc1
79.2

Recall and state the measured residual activity for C[C@@H]1CCN(C(=O)CC#N)C[C@@H]1N(C)c1ncnc2[nH]ccc12 .
101

Specify measured residual activity for Cc1cncc2cccc(S(=O)(=O)N3CCCN(C(=O)CN)C[C@H]3C)c12 .
83.2

Please list residual activity recorded for the compound COc1ccc(S(=O)(=O)N(CCO)c2ccccc2CN(C)C/C=C/c2ccc(Cl)cc2)cc1
106

Tell us which residual activity value is on record for c1ccc2c(-c3ccncc3)c[nH]c2c1
83
